Species: Rattus norvegicus
PROTOCOL TEXT: DrugMatrix - Regimen: Daily Repeat
Format: toxicity, organism-based, Sprague-Dawley
Set-up: regimen Daily Repeat, gender Male, age 6-8 weeks
CONDITION SET: in vivo, ip, 0 mg/kg, […], tissue Blood, route intraperitoneal, dose level Control, time 28 day, vehicle 100 % SALINE
PARAMETER MEASURED: ABSOLUTE EOSINOPHIL

### Prompt Item under review: LEAD (II) ACETATE . Reported ABSOLUTE EOSINOPHIL?
### Response 110 cells/µL

###

Species: Rattus norvegicus
PROTOCOL TEXT: DrugMatrix - Regimen: Daily Repeat
Type: toxicity, organism-based, Sprague-Dawley
Design: regimen Daily Repeat, gender Male, age 6-8 weeks
CONDITION SET: in vivo, po, 0 mg/kg, 2184 h, tissue Blood, route oral GAVAGE, dose level Control, time 91 day, vehicle .5 % CMC
PARAMETER MEASURED: ABSOLUTE LYMPHOCYTE
Remember to quote the unit after the number.

### Prompt Sample Cc1ccc2cc3c(ccc4ccccc43)c3c2c1CC3 [3-METHYLCHOLANTHRENE] — what was its ABSOLUTE LYMPHOCYTE?
### Response 8670 cells/µL

###

Species on record: Rattus norvegicus
PROTOCOL TEXT: DrugMatrix - Regimen: Daily Repeat
Type: toxicity, organism-based, Sprague-Dawley
Parameters: regimen Daily Repeat, gender Male, age 6-8 weeks
CONDITION SET: in vivo, po, 0 mg/kg, 120 h, tissue Blood, route oral GAVAGE, dose level Control, time 5 day, […]
Assign LEUKOCYTE COUNT to each entry below.
Answers are plain numbers, in x10E3/uL.

>>> meas_value("CCC(C)n1ncn(-c2ccc(N3CCN(c4ccc(OCC5COC(Cn6cncn6)(c6ccc(Cl)cc6Cl)O5)cc4)CC3)cc2)c1=O (stereo unspecified)")
18.8
>>> meas_value("CN(C)c1nc(N(C)C)nc(N(C)C)n1")
10.58
>>> meas_value("OC(Cn1cncn1)(Cn1cncn1)c1ccc(F)cc1F")
18.8
>>> meas_value("C[C@@H]1CN(c2c(F)c(N)c3c(=O)c(C(=O)O)cn(C4CC4)c3c2F)C[C@H](C)N1")
10.58
>>> meas_value("O=C(O)CCCc1ccc(N(CCCl)CCCl)cc1")
18.8

// below: LEUKOCYTE COUNT requested for another compound
### Prompt # get_value(readout='LEUKOCYTE COUNT', item= "O=c1oc2ccccc2c(O)c1Cc1c(O)c2ccccc2oc1=O" )
### Response 9.35

###

Organism: Rattus norvegicus
PROTOCOL TEXT: DrugMatrix - Regimen: Daily Repeat
Assay type: toxicity, organism-based, Sprague-Dawley
Parameters: regimen Daily Repeat, gender Male, age 6-8 weeks
CONDITION SET: in vivo, po, 0 mg/kg, 72 h, tissue Blood, route oral GAVAGE, dose level Control, time 3 day, vehicle .5 % CMC
For each of the molecules below, state its ERYTHROCYTE COUNT.
In your response, the unit should come after the numeric value.

>>> meas_value("CN1CCN(CCCN2c3ccccc3Sc3ccc(Cl)cc32)CC1")
"5.57 x10E6/uL"

Below is a list of molecules. For each, state its recorded ERYTHROCYTE COUNT.
1. O=C(CCCN1CC=C(n2c(=O)[nH]c3ccccc32)CC1)c1ccc(F)cc1
2. CCOP(=S)(OCC)Oc1nc(Cl)c(Cl)cc1Cl

### Response
1. 6.96 x10E6/uL
2. 6.33 x10E6/uL

Hi, could you look up ERYTHROCYTE COUNT for each item in my list?
1. C1CCC(C(CC2CCCCN2)C2CCCCC2)CC1 (stereo not given)
2. OCCN(CCO)c1nc(N2CCCCC2)c2nc(N(CCO)CCO)nc(N3CCCCC3)c2n1

### Response
1. 6.55 x10E6/uL
2. 6.34 x10E6/uL
